- Test system: ChaGo-K-1
- Protocol Details: relative viability (nuclei count vs DMSO), 5 days (fraction); higher = more cells survive
- Measurement Conditions: first compound 6.325 µM
Experimental Readout: relative viability
Enter the number alone.

Request: What relative viability value was documented for this molecule, Cc1csc(=NC2CCCCC2)n1/N=C/c1ccc(O)c(O)c1O [MIM1] + CC(=O)Nc1cccc(-n2c(=O)n(C3CC3)c(=O)c3c(Nc4ccc(I)cc4F)n(C)c(=O)c(C)c32)c1 [Trametinib] (partner 0.02 µM) ?
Response: 0.607

Request: What relative viability value was documented for this molecule, Cc1csc(=NC2CCCCC2)n1/N=C/c1ccc(O)c(O)c1O [MIM1] + O=C(CCCCCCC(=O)Nc1ccccc1)NO [Vorinostat] (partner 1 µM) ?
Response: 0.543

Request: What relative viability value was documented for this molecule, Cc1csc(=NC2CCCCC2)n1/N=C/c1ccc(O)c(O)c1O [MIM1] + CCNC(=O)c1noc(-c2cc(C(C)C)c(O)cc2O)c1-c1ccc(CN2CCOCC2)cc1 [Luminespib] (partner 0.01 µM) ?
Response: 0.323

Request: What relative viability value was documented for this molecule, Cc1csc(=NC2CCCCC2)n1/N=C/c1ccc(O)c(O)c1O [MIM1] + C[C@@H](Oc1cc(-c2cnn(C3CCNCC3)c2)cnc1N)c1c(Cl)ccc(F)c1Cl [Crizotinib] (partner 1 µM) ?
Response: 0.835

Request: What relative viability value was documented for this molecule, Cc1csc(=NC2CCCCC2)n1/N=C/c1ccc(O)c(O)c1O [MIM1] + NC(=O)Nc1cc(-c2cccc(F)c2)sc1C(=O)N[C@H]1CCCNC1 [AZD7762] (partner 0.2 µM) ?
Response: 0.596

Request: What relative viability value was documented for this molecule, Cc1csc(=NC2CCCCC2)n1/N=C/c1ccc(O)c(O)c1O [MIM1] + CS(=O)(=O)N1CCN(Cc2cc3nc(-c4cccc5[nH]ncc45)nc(N4CCOCC4)c3s2)CC1 [Pictilisib] (partner 1 µM) ?
Response: 0.644

---

- Test system: HOP-62
- Protocol Details: relative viability (nuclei count vs DMSO), 5 days (fraction); higher = more cells survive
- Measurement Conditions: first compound 0.03162 µM
Experimental Readout: relative viability
Enter the number alone.

Request: What relative viability value was documented for this compound, Cc1cn(-c2cc(NC(=O)c3ccc(C)c(Nc4nccc(-c5cccnc5)n4)c3)cc(C(F)(F)F)c2)cn1 [Nilotinib] + Cc1nc(NC(=O)N2CCC[C@H]2C(N)=O)sc1-c1ccnc(C(C)(C)C(F)(F)F)c1 [Alpelisib] (partner 2 µM) ?
Response: 0.742

Request: What relative viability value was documented for this compound, Cc1cn(-c2cc(NC(=O)c3ccc(C)c(Nc4nccc(-c5cccnc5)n4)c3)cc(C(F)(F)F)c2)cn1 [Nilotinib] + O=C(c1cc(Cc2n[nH]c(=O)c3ccccc23)ccc1F)N1CCN(C(=O)C2CC2)CC1 [Olaparib] (partner 8 µM) ?
Response: 0.403

Request: What relative viability value was documented for this compound, Cc1cn(-c2cc(NC(=O)c3ccc(C)c(Nc4nccc(-c5cccnc5)n4)c3)cc(C(F)(F)F)c2)cn1 [Nilotinib] + CS(=O)(=O)N1CCN(Cc2cc3nc(-c4cccc5[nH]ncc45)nc(N4CCOCC4)c3s2)CC1 [Pictilisib] (partner 1 µM) ?
Response: 0.63

Request: What relative viability value was documented for this compound, Cc1cn(-c2cc(NC(=O)c3ccc(C)c(Nc4nccc(-c5cccnc5)n4)c3)cc(C(F)(F)F)c2)cn1 [Nilotinib] + N=C(N)NC(=N)NCCc1ccccc1 [Phenformin] (partner 250 µM) ?
Response: 0.444

Request: What relative viability value was documented for this compound, Cc1cn(-c2cc(NC(=O)c3ccc(C)c(Nc4nccc(-c5cccnc5)n4)c3)cc(C(F)(F)F)c2)cn1 [Nilotinib] + C[C@@H](Oc1cc(-c2cnn(C3CCNCC3)c2)cnc1N)c1c(Cl)ccc(F)c1Cl [Crizotinib] (partner 1 µM) ?
Response: 0.796

Request: What relative viability value was documented for this compound, Cc1cn(-c2cc(NC(=O)c3ccc(C)c(Nc4nccc(-c5cccnc5)n4)c3)cc(C(F)(F)F)c2)cn1 [Nilotinib] + C[C@]1(O)C[C@@H](c2nc(-c3ccc4ccc(-c5ccccc5)nc4c3)c3c(N)nccn32)C1 [Linsitinib] (partner 1 µM) ?
Response: 0.715

---

- Test system: A-427
- Protocol Details: relative viability (nuclei count vs DMSO), 5 days (fraction); higher = more cells survive
- Measurement Conditions: first compound 0.06325 µM
Experimental Readout: relative viability
Enter the number alone.

Request: What relative viability value was documented for this compound, CCNC(=O)c1noc(-c2cc(C(C)C)c(O)cc2O)c1-c1ccc(CN2CCOCC2)cc1 [Luminespib] + Nc1ncn([C@H]2C[C@H](O)[C@@H](CO)O2)c(=O)n1 [Decitabine] (partner 2 µM) ?
Response: 0.599

Request: What relative viability value was documented for this compound, CCNC(=O)c1noc(-c2cc(C(C)C)c(O)cc2O)c1-c1ccc(CN2CCOCC2)cc1 [Luminespib] + O=C(CCCCCCC(=O)Nc1ccccc1)NO [Vorinostat] (partner 1 µM) ?
Response: 0.327

Request: What relative viability value was documented for this compound, CCNC(=O)c1noc(-c2cc(C(C)C)c(O)cc2O)c1-c1ccc(CN2CCOCC2)cc1 [Luminespib] + CS(=O)(=O)N1CCN(Cc2cc3nc(-c4cccc5[nH]ncc45)nc(N4CCOCC4)c3s2)CC1 [Pictilisib] (partner 1 µM) ?
Response: 0.733

Request: What relative viability value was documented for this compound, CCNC(=O)c1noc(-c2cc(C(C)C)c(O)cc2O)c1-c1ccc(CN2CCOCC2)cc1 [Luminespib] + COc1cccc2cc(-c3nc([C@H]4CC[C@H](C(=O)O)CC4)n4ncnc(N)c34)[nH]c12 [OSI-027] (partner 0.5 µM) ?
Response: 0.158

---

- Tested on: LXF-289
- Protocol Details: relative viability (nuclei count vs DMSO), 5 days (fraction); higher = more cells survive
- Measurement Conditions: first compound 6.325 µM
Field: label. Allowed values: 1 (yes) (relative viability < 0.5) or 0 (no) (relative viability >= 0.5).

Request: Field: below-cutoff. Rule: recorded relative viability strictly less than 0.5. Subject: Cc1csc(=NC2CCCCC2)n1/N=C/c1ccc(O)c(O)c1O [MIM1] + CCNC(=O)c1noc(-c2cc(C(C)C)c(O)cc2O)c1-c1ccc(CN2CCOCC2)cc1 [Luminespib] (partner 0.01 µM)
Response: 0 (no)

Request: Field: below-cutoff. Rule: recorded relative viability strictly less than 0.5. Subject: Cc1csc(=NC2CCCCC2)n1/N=C/c1ccc(O)c(O)c1O [MIM1] + C[C@]1(O)C[C@@H](c2nc(-c3ccc4ccc(-c5ccccc5)nc4c3)c3c(N)nccn32)C1 [Linsitinib] (partner 1 µM)
Response: 0 (no)

Request: Field: below-cutoff. Rule: recorded relative viability strictly less than 0.5. Subject: Cc1csc(=NC2CCCCC2)n1/N=C/c1ccc(O)c(O)c1O [MIM1] + CC(C)C[C@H](NC(=O)[C@H](Cc1ccccc1)NC(=O)c1cnccn1)B(O)O [Bortezomib] (partner 0.002 µM)
Response: 0 (no)

Request: Field: below-cutoff. Rule: recorded relative viability strictly less than 0.5. Subject: Cc1csc(=NC2CCCCC2)n1/N=C/c1ccc(O)c(O)c1O [MIM1] + CC(=O)c1c(C)c2cnc(Nc3ccc(N4CCNCC4)cn3)nc2n(C2CCCC2)c1=O [Palbociclib] (partner 0.5 µM)
Response: 0 (no)

Request: Field: below-cutoff. Rule: recorded relative viability strictly less than 0.5. Subject: Cc1csc(=NC2CCCCC2)n1/N=C/c1ccc(O)c(O)c1O [MIM1] + Cc1cc(Nc2cc(N3CCN(C)CC3)nc(Sc3ccc(NC(=O)C4CC4)cc3)n2)n[nH]1 [Tozasertib] (partner 0.1 µM)
Response: 1 (yes)

---

- Tested on: NCI-H727
- Protocol Details: relative viability (nuclei count vs DMSO), 5 days (fraction); higher = more cells survive
- Measurement Conditions: first compound 0.03162 µM
Field: label. Allowed values: Criterion met (relative viability < 0.6) or Criterion not met (relative viability >= 0.6).

Request: Field: below-cutoff. Rule: recorded relative viability strictly less than 0.6. Subject: Cc1cn(-c2cc(NC(=O)c3ccc(C)c(Nc4nccc(-c5cccnc5)n4)c3)cc(C(F)(F)F)c2)cn1 [Nilotinib] + Cc1nc(NC(=O)N2CCC[C@H]2C(N)=O)sc1-c1ccnc(C(C)(C)C(F)(F)F)c1 [Alpelisib] (partner 2 µM)
Response: Criterion met

Request: Field: below-cutoff. Rule: recorded relative viability strictly less than 0.6. Subject: Cc1cn(-c2cc(NC(=O)c3ccc(C)c(Nc4nccc(-c5cccnc5)n4)c3)cc(C(F)(F)F)c2)cn1 [Nilotinib] + COc1cccc2cc(-c3nc([C@H]4CC[C@H](C(=O)O)CC4)n4ncnc(N)c34)[nH]c12 [OSI-027] (partner 0.5 µM)
Response: Criterion met

Request: Field: below-cutoff. Rule: recorded relative viability strictly less than 0.6. Subject: Cc1cn(-c2cc(NC(=O)c3ccc(C)c(Nc4nccc(-c5cccnc5)n4)c3)cc(C(F)(F)F)c2)cn1 [Nilotinib] + O=C(c1cc(Cc2n[nH]c(=O)c3ccccc23)ccc1F)N1CCN(C(=O)C2CC2)CC1 [Olaparib] (partner 8 µM)
Response: Criterion not met

Request: Field: below-cutoff. Rule: recorded relative viability strictly less than 0.6. Subject: Cc1cn(-c2cc(NC(=O)c3ccc(C)c(Nc4nccc(-c5cccnc5)n4)c3)cc(C(F)(F)F)c2)cn1 [Nilotinib] + C[C@@H](Oc1cc(-c2cnn(C3CCNCC3)c2)cnc1N)c1c(Cl)ccc(F)c1Cl [Crizotinib] (partner 1 µM)
Response: Criterion met
